Test system: GAK;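 note: KINOMEscan kinase panel screen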
Conditions: concentration: 1 μM, replicates: in singlicate; n = 1
Listed here: items and their measured %Inh.
Give just the number in %; leave the unit off.

Sample records with %Inh:
Cc1cccc(-c2cc(Nc3ccncc3)c3ccccc3n2)n1 | 0
Cc1ccccc1-n1cnc2c(N)ncnc21 | 0
C[C@@H]1CCCCN1c1cc(-c2ccc3c(N)n[nH]c3c2)nc(N)n1 | 14
Cc1cccc(-c2nc(-c3ccc(S(C)(=O)=O)cc3)sc2-c2ccnc(NCCc3ccccc3)c2)c1 | 0
Nc1nc(-c2nccs2)c(-c2ccnc3ccccc23)s1 | 45

[ask] I have this molecule here, "CS(=O)(=O)c1ccc(-c2c(-c3ncn[nH]3)sc(N3CCOCC3)c2C#N)cc1" , and I need its recorded %Inh.
[reply] 0

[ask] I have this molecule here, "Nc1ncnc2[nH]c(-c3ccccc3)nc12" , and I need its recorded %Inh.
[reply] 44

[ask] I have this molecule here, "COc1ccc(Nc2nccc(NCCNC(=O)Nc3ccccc3F)n2)cc1" , and I need its recorded %Inh.
[reply] 0

[ask] I have this molecule here, "Cc1ccc(NC(=O)Nc2cc(C(C)(C)C)nn2-c2ccccc2)cc1" , and I need its recorded %Inh.
[reply] 11
